Molecular target: Human Recombinant Matriptase 2 (Homo sapiens, UniProt Q8IU80)
Construct: made in house
Sequence (Q8IU80 1-811): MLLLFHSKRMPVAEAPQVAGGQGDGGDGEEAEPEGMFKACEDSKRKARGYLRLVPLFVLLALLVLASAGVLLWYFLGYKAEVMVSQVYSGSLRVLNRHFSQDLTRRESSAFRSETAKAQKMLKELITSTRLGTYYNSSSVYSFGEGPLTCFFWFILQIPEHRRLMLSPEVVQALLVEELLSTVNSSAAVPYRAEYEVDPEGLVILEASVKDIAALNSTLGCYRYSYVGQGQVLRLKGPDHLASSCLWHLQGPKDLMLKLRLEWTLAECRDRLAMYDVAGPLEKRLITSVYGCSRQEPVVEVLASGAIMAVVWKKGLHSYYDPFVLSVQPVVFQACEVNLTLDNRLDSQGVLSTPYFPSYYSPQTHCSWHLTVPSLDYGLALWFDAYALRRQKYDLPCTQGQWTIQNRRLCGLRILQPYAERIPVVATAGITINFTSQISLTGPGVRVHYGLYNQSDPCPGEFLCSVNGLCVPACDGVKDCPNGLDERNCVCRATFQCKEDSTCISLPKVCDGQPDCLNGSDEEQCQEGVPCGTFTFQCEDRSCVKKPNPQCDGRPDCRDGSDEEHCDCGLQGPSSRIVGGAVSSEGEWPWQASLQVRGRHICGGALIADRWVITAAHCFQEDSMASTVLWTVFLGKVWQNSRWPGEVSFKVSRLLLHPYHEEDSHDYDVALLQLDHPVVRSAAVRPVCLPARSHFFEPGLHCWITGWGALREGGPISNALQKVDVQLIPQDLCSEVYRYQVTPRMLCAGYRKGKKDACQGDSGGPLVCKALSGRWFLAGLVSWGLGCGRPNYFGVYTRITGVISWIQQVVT
Test: Matriptase 2 inhibition, fluorescence based assay (Method I)
Type: biochemical
Details: Table A; Ki of Matriptase-2; read-out: Mat-2 Ki
pKi: −log10 of the molar value.
measureName: pKi

> print(dat)
                                smilesinput                           targetundertest    testresult
1  CN(CCOC(=O)c1cc2ccc(CN)nc2n1Cc1cc(NS(=O)(=O)Cc2ccccc2)cc2ccccc12)C(=O)OC(C)(C)C  Human Recombinant Matriptase 2 (Homo sapiens, UniProt Q8IU80)  5.52 to 6.30

(Q) Entry under review: NCc1ccc2cc(C(=O)OCC34CCN(CC3)CC4)n(Cc3cc(NS(=O)(=O)Cc4ccccc4)cc4ccccc34)c2n1 . Reported pKi?
(A) ≥ 7.00

(Q) What do we get for NCc1ccc2cc(C(=O)OCCn3cncn3)n(Cc3cc(NS(=O)(=O)Cc4ccccc4)cc4ccccc34)c2n1 ?
(A) 6.30 to 7.00

(Q) What do we get for CN1CCN(CCOC(=O)c2cc3ccc(CN)nc3n2Cc2cc(NS(=O)(=O)Cc3ccsc3)cc3ccccc23)CC1 ?
(A) ≥ 7.00

(Q) What do we get for NCc1ccc2cc(C(=O)OCCN3CCCC3)n(Cc3cc(NS(=O)(=O)Cc4ccsc4)cc4ccccc34)c2n1 ?
(A) ≥ 7.00

(Q) What do we get for Cc1cccc(C)c1CS(=O)(=O)Nc1cc(Cn2c(C(=O)OC[C@H]3CNCCO3)cc3ccc(CN)nc32)c2ccccc2c1 ?
(A) ≥ 7.00

(Q) What do we get for Cc1cccc(C)c1CS(=O)(=O)Nc1cc(Cn2c(C(=O)NCCC3CCN(C)CC3)cc3ccc(CN)nc32)c2ccccc2c1 ?
(A) ≥ 7.00

(Q) What do we get for Cc1cccc(C)c1CS(=O)(=O)Nc1cc(Cn2c(C(=O)O)cc3ccc(CN)nc32)c2ccccc2c1 ?
(A) ≥ 7.00
